Consider the following compounds; for each one, report its melting point.

Exam item: Find the recorded melting point belonging to C=C1CC(c2ccccc2OC(=O)c2cccc(C)c2)OC1=O (stereo not drawn) and report it.
Marked response: 179.3 to 179.9 °C

Exam item: Can you look up the measured melting point of C=C1CC(c2cccc(OC(=O)c3ccccc3Br)c2)OC1=O (stereo not drawn) for me?
Marked response: 175.3 to 175.8 °C

Exam item: Please report the recorded melting point for C=C1CC(c2ccccc2OC(=O)c2ccc(C)cc2)OC1=O (stereo not drawn) .
Marked response: 181.2 to 181.6 °C

Exam item: # melting point lookup, item C=C1CC(c2ccc(OC(=O)c3ccc(C)cc3)cc2)OC1=O (stereo not drawn)
Marked response: 184.5 to 185.1 °C

Exam item: Need melting point, item C=C1CC(c2ccccc2OC(=O)c2cccc(OC)c2)OC1=O (stereo not drawn)
Marked response: 180.3 to 180.8 °C

Exam item: Name the reported melting point value associated with the compound C=C1CC(c2ccc(OC(=O)c3ccccc3Cl)cc2)OC1=O (stereo not drawn)
Marked response: 187.2 to 187.9 °C

Exam item: Value lookup for melting point; key = C=C1CC(c2ccc(OC(=O)c3ccccc3)cc2)OC1=O (stereo not drawn)
Marked response: 223.3 to 223.7 °C

Exam item: I am curious: what melting point value has been reported for C=C1CC(c2ccc(OC(=O)c3ccccc3OC)cc2)OC1=O (stereo not drawn) ?
Marked response: 179.8 to 180.4 °C

Exam item: Given the entry C=C1CC(c2ccc(OC(=O)c3cccc(OC)c3)cc2)OC1=O (stereo not drawn) , report its measured melting point.
Marked response: 185.7 to 186.2 °C

* * *

System: C. lagenarium
Assay: Spore germination assay, fungicidal activity against C. lagenarium
Format: cell-based, Colletotrichum lagenarium
Conditions: Colletotrichum orbiculare; Table 2; fungicidal activity against C. lagenarium used for QSAR; read-out: pIC50 (converted)
Please assign Not satisfied whenever IC50 is at or above 100 µM, and Satisfied whenever it is below.

Exam item: Is the reported IC50 for C=C1CC(c2ccccc2OC(C)C)OC1=O (centres unmarked) strictly below 100 µM?
Marked response: Not satisfied

Exam item: API: query returns whether the compound falls strictly under 100 µM in IC50. Query: C=C1CC(c2ccccc2OCC)OC1=O (centres unmarked)
Marked response: Not satisfied

Exam item: Criterion: IC50 strictly below 100 µM. Is it met by C=C1CC(c2ccc(OC(=O)c3ccccc3OC)cc2)OC1=O (centres unmarked) ?
Marked response: Not satisfied

Exam item: Just wondering, is IC50 of C=C1CC(c2ccc(OC(=O)C=Cc3ccccc3)cc2)OC1=O (centres unmarked) below 100 µM?
Marked response: Satisfied

Exam item: Is it true that IC50 reported for C=C1CC(c2cccc(OCCCC)c2)OC1=O (centres unmarked) is less than 100 µM?
Marked response: Not satisfied

Exam item: Please check: IC50 for C=C1CC(c2cccc(OC(=O)c3ccc(OC)cc3)c2)OC1=O (centres unmarked) , strictly under 100 µM or not?
Marked response: Not satisfied

Exam item: hey, is IC50 for C=C1CC(c2cccc(OC(=O)c3cccc(OC)c3)c2)OC1=O (centres unmarked) lower than 100 µM or not?
Marked response: Not satisfied

Exam item: Hello, is IC50 of the following compound strictly smaller than 100 µM? C=C1CC(c2ccc(OC(=O)c3cccc(Cl)c3)cc2)OC1=O (centres unmarked)
Marked response: Satisfied

Exam item: Problem: For the compound C=C1CC(c2ccccc2OC(=O)c2cccc(C)c2)OC1=O (centres unmarked) , is IC50 under 100 µM?
Marked response: Not satisfied

Exam item: hey, is IC50 for C=C1CC(c2cccc(OC(=O)c3ccc(Cl)cc3)c2)OC1=O (centres unmarked) lower than 100 µM or not?
Marked response: Satisfied

Exam item: In plain terms, does C=C1CC(c2ccccc2OC(=O)c2ccccc2OC)OC1=O (centres unmarked) come in under 100 µM for IC50?
Marked response: Not satisfied

Reference source for all entries: paper PMC6273913
